Origin of values: the supplement of paper PMC11061612

- Test system: Daudi (Burkitt's Lymphoma)
- METHOD SUMMARY: Bliss excess, mean over the matrix (fraction); higher = more synergy
RESULT TYPE: Bliss excess
Answers are plain numbers.

Example compounds with recorded Bliss excess:
COMPOUND: NC1(C(=O)N[C@@H](CCO)c2ccc(Cl)cc2)CCN(c2ncnc3[nH]ccc23)CC1 [Capivasertib] + CC(=O)c1c(C)c2cnc(Nc3ccc(N4CCNCC4)cn3)nc2n(C2CCCC2)c1=O [Palbociclib] (first compound max 10 µM, 7x7, partner max 10 µM)
TEST RESULT: 0.0065

COMPOUND: COc1nnc2ccc(N3CCC(c4ccc(OCCN5CCN(C)C(=O)[C@H]5C)cc4)CC3)nn12 [AZD5153] + Cc1c2c(nn1C)CSCc1cc(n(C)n1)CSc1cc(c3ccccc3c1)OCCCc1c(C(=O)O)n(C)c3c-2c(Cl)ccc13 [AZD5991] (first compound max 1 µM, 7x7, partner max 1 µM)
TEST RESULT: 0.0407

COMPOUND: CCN(CCO)CCCOc1ccc2c(Nc3cc(CC(=O)Nc4cccc(F)c4)[nH]n3)ncnc2c1 [AZD2811] + C[C@@H]1COCCN1C2=NC(=NC(=C2)C3(CC3)[S@](=N)(=O)C)C4=C5C=CNC5=NC=C4 [AZD6738] (first compound max 1 µM, 7x7, partner max 10 µM)
TEST RESULT: 0.0457

COMPOUND: CN(CCO)CC[C@H](CSc1ccccc1)Nc1ccc(S(=O)(=O)NC(=O)c2ccc(N3CCC([C@@H](O)c4ccccc4-c4ccc(Cl)cc4)CC3)cc2)cc1S(=O)(=O)C(F)(F)F [AZD4320] + C1CN(CCC1(C(=O)N[C@@H](CCO)C2=CC=C(C=C2)Cl)N)C3=NC=NC4=C3C=CN4 [Capivasertib] (first compound max 1 µM, 7x7, partner max 3 µM)
TEST RESULT: -0.0512

COMPOUND: CN(C)CCCOc1ccc(-c2ccc3ncc4c(c3c2)n(C2CCOCC2)c(=O)n4C)cn1 [AZD0156] + O=C(c1cc(Cc2n[nH]c(=O)c3ccccc23)ccc1F)N1CCN(C(=O)C2CC2)CC1 [Olaparib] (first compound max 3 µM, partner max 3 µM)
TEST RESULT: 0.0672

COMPOUND: Cn1cnc2c(F)c(Nc3ccc(Br)cc3Cl)c(C(=O)NOCCO)cc21 [Selumetinib] + C=CCn1c(=O)c2cnc(Nc3ccc(N4CCN(C)CC4)cc3)nc2n1-c1cccc(C(C)(C)O)n1 [AZD1775] (first compound max 10 µM, partner max 1 µM)
TEST RESULT: -0.0995

Now look at this entry.
Bliss excess reported for this compound COc1nnc2ccc(N3CCC(c4ccc(OCCN5CCN(C)C(=O)[C@H]5C)cc4)CC3)nn12 [AZD5153] + C=CCn1c(=O)c2cnc(Nc3ccc(N4CCN(C)CC4)cc3)nc2n1-c1cccc(C(C)(C)O)n1 [AZD1775] (first compound max 1 µM, partner max 1 µM) : -0.0642

---

- Tested on: SK-MEL-24 (Melanoma)
- METHOD SUMMARY: Bliss excess, mean over the matrix (fraction); higher = more synergy
RESULT TYPE: Bliss excess
Numbers only.

Example compounds with recorded Bliss excess:
COMPOUND: Cc1c2c(nn1C)CSCc1cc(n(C)n1)CSc1cc(c3ccccc3c1)OCCCc1c(C(=O)O)n(C)c3c-2c(Cl)ccc13 [AZD5991] + Cc1cc2ncnn2cc1Nc1ncc2c(n1)n(C1CCOCC1)c(=O)n2C [AZD7648] (first compound max 1 µM, 7x7, partner max 10 µM)
TEST SYSTEM: SK-MEL-24 (Melanoma)
Bliss excess: -0.0134
//
COMPOUND: CCc1c2c(nc3ccc(O)cc13)-c1cc3c(c(=O)n1C2)COC(=O)[C@]3(O)CC [SN-38] + O=C(c1cc(Cc2n[nH]c(=O)c3ccccc23)ccc1F)N1CCN(C(=O)C2CC2)CC1 [Olaparib] (first compound max 0.3 µM, 7x7, partner max 10 µM)
TEST SYSTEM: SK-MEL-24 (Melanoma)
Bliss excess: 0.0007
//
COMPOUND: NC1(C(=O)N[C@@H](CCO)c2ccc(Cl)cc2)CCN(c2ncnc3[nH]ccc23)CC1 [Capivasertib] + CC(C)n1c(=O)n(C)c2cnc3cc(F)c(-c4ccc(OCCCN5CCCCC5)nc4)cc3c21 [AZD1390] (first compound max 10 µM, 7x7, partner max 0.3 µM)
TEST SYSTEM: SK-MEL-24 (Melanoma)
Bliss excess: -0.0251
//
COMPOUND: CC1(C)CCC(CN2CCN(c3ccc(C(=O)NS(=O)(=O)c4ccc(NCC5CCOCC5)c([N+](=O)[O-])c4)c(Oc4cnc5[nH]ccc5c4)c3)CC2)=C(c2ccc(Cl)cc2)C1 [Venetoclax] + CN(C)CCCOc1ccc(-c2ccc3ncc4c(c3c2)n(C2CCOCC2)c(=O)n4C)cn1 [AZD0156] (first compound max 1 µM, 7x7, partner max 1 µM)
TEST SYSTEM: SK-MEL-24 (Melanoma)
Bliss excess: -0.0426
//
COMPOUND: COc1cccc(OCCCN)c1-c1cc(Nc2cnc(C#N)cn2)n[nH]1 [Prexasertib] + O=C(c1cc(Cc2n[nH]c(=O)c3ccccc23)ccc1F)N1CCN(C(=O)C2CC2)CC1 [Olaparib] (first compound max 1 µM, 7x7, partner max 10 µM)
TEST SYSTEM: SK-MEL-24 (Melanoma)
Bliss excess: -0.0381
//
COMPOUND: CC1(C)CCC(CN2CCN(c3ccc(C(=O)NS(=O)(=O)c4ccc(NCC5CCOCC5)c([N+](=O)[O-])c4)c(Oc4cnc5[nH]ccc5c4)c3)CC2)=C(c2ccc(Cl)cc2)C1 [Venetoclax] + CCN(CCO)CCCOc1ccc2c(Nc3cc(CC(=O)Nc4cccc(F)c4)[nH]n3)ncnc2c1 [AZD2811] (first compound max 1 µM, 7x7, partner max 1 µM)
TEST SYSTEM: SK-MEL-24 (Melanoma)
Bliss excess: -0.053

Now look at this entry.
Bliss excess of CC1(C)CCC(CN2CCN(c3ccc(C(=O)NS(=O)(=O)c4ccc(NCC5CCOCC5)c([N+](=O)[O-])c4)c(Oc4cnc5[nH]ccc5c4)c3)CC2)=C(c2ccc(Cl)cc2)C1 [Venetoclax] + Cn1cnc2c(F)c(Nc3ccc(Br)cc3Cl)c(C(=O)NOCCO)cc21 [Selumetinib] (first compound max 1 µM, 7x7, partner max 3 µM) , assay on SK-MEL-24 (Melanoma), is -0.0001

---

- Tested on: C2BBe1 (Colorectal Carcinoma)
- METHOD SUMMARY: combination Emax (second highest fraction inhibited in the dose matrix, 72 h); higher = more inhibition; extreme values may be limits of the assay
RESULT TYPE: combination Emax
Give bare numbers.

combination Emax reported for this molecule CN(CCO)CC[C@H](CSc1ccccc1)Nc1ccc(S(=O)(=O)NC(=O)c2ccc(N3CCC([C@@H](O)c4ccccc4-c4ccc(Cl)cc4)CC3)cc2)cc1S(=O)(=O)C(F)(F)F [AZD4320] + C=CCn1c(=O)c2cnc(Nc3ccc(N4CCN(C)CC4)cc3)nc2n1-c1cccc(C(C)(C)O)n1 [AZD1775] (first compound max 1 µM, partner max 1 µM) : 0.346

---

Record form. Attribute: combination Emax. Fill in for each entry.
- Tested on: MG-63 (Osteosarcoma)
- METHOD SUMMARY: combination Emax (second highest fraction inhibited in the dose matrix, 72 h); higher = more inhibition; extreme values may be limits of the assay
Answers are plain numbers.

COMPOUND: COc1cccc(OCCCN)c1-c1cc(Nc2cnc(C#N)cn2)n[nH]1 [Prexasertib] + Cc1cc2ncnn2cc1Nc1ncc2c(n1)n(C1CCOCC1)c(=O)n2C [AZD7648] (first compound max 1 µM, 7x7, partner max 10 µM)
TEST RESULT: 0.921

Please supply combination Emax for each of the following items, keeping them in order.
1. COc1cccc2c1C(=O)c1c(O)c3c(c(O)c1C2=O)C[C@@](O)(C(=O)CO)C[C@@H]3O[C@H]1C[C@H](N)[C@H](O)[C@H](C)O1 [Doxorubicin] + Cc1cc2ncnn2cc1Nc1ncc2c(n1)n(C1CCOCC1)c(=O)n2C [AZD7648] (first compound max 1 µM, 7x7, partner max 10 µM)
2. C=CCn1c(=O)c2cnc(Nc3ccc(N4CCN(C)CC4)cc3)nc2n1-c1cccc(C(C)(C)O)n1 [AZD1775] + C1CN(CCC1(C(=O)N[C@@H](CCO)C2=CC=C(C=C2)Cl)N)C3=NC=NC4=C3C=CN4 [Capivasertib] (first compound max 3 µM, partner max 3 µM)
3. C=CCn1c(=O)c2cnc(Nc3ccc(N4CCN(C)CC4)cc3)nc2n1-c1cccc(C(C)(C)O)n1 [AZD1775] + O=C(c1cc(Cc2n[nH]c(=O)c3ccccc23)ccc1F)N1CCN(C(=O)C2CC2)CC1 [Olaparib] (first compound max 1 µM, partner max 10 µM)
4. CC1(C)CCC(CN2CCN(c3ccc(C(=O)NS(=O)(=O)c4ccc(NCC5CCOCC5)c([N+](=O)[O-])c4)c(Oc4cnc5[nH]ccc5c4)c3)CC2)=C(c2ccc(Cl)cc2)C1 [Venetoclax] + Cn1cnc2c(F)c(Nc3ccc(Br)cc3Cl)c(C(=O)NOCCO)cc21 [Selumetinib] (first compound max 1 µM, 7x7, partner max 3 µM)
5. COc1nnc2ccc(N3CCC(c4ccc(OCCN5CCN(C)C(=O)[C@H]5C)cc4)CC3)nn12 [AZD5153] + CCN(CCO)CCCOc1ccc2c(Nc3cc(CC(=O)Nc4cccc(F)c4)[nH]n3)ncnc2c1 [AZD2811] (first compound max 1 µM, 7x7, partner max 1 µM)
6. N#Cc1cnc(Nc2cc(NC[C@H]3CNCCO3)c(C(F)(F)F)cn2)cn1 [SRA737] + CCc1c2c(nc3ccc(O)cc13)-c1cc3c(c(=O)n1C2)COC(=O)[C@]3(O)CC [SN-38] (first compound max 10 µM, 7x7, partner max 0.3 µM)

Reply |
0.896
0.668
0.548
0.148
0.694
0.953
